# targetDesc: VHL complex (VHL, Elongin B, Elongin C, Cul2, Rbx1) (Homo sapiens (Human))
# Sequence (P40337 whole entry, looked up): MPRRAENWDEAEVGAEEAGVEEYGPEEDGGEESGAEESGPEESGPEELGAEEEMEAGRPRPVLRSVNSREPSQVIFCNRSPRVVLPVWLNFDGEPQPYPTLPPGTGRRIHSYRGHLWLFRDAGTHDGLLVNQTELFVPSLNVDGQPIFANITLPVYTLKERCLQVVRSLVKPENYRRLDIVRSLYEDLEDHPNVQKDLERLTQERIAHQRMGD
# Sequence (Q15370 whole entry partner, looked up): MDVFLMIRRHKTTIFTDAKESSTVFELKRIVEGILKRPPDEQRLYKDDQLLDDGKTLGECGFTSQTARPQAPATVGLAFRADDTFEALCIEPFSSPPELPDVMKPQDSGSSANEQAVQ
# Sequence (Q15369 whole entry partner, looked up): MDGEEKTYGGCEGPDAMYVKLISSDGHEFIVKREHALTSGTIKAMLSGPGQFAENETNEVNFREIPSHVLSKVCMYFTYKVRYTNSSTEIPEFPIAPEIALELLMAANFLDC
# Sequence (Q13617 whole entry partner, looked up): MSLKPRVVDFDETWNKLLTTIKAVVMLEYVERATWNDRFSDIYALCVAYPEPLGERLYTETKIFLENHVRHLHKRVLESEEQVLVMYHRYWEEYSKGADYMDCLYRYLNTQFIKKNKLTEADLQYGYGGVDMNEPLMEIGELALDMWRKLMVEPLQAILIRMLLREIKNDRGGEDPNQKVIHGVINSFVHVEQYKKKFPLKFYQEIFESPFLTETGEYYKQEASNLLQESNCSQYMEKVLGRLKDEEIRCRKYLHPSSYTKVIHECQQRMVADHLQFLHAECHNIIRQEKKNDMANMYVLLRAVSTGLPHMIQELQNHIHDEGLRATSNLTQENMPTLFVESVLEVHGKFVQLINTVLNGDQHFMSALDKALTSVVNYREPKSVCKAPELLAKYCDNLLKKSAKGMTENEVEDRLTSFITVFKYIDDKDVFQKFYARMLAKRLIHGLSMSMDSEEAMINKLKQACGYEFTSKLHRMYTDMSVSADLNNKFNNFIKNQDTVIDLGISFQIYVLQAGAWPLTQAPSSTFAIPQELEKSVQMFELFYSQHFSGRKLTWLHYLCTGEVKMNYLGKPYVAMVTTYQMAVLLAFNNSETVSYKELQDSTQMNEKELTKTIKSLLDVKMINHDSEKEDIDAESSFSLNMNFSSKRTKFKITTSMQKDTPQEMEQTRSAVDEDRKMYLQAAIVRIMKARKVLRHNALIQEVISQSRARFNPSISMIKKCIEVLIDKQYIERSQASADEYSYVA
# Sequence (P62877 whole entry partner, looked up): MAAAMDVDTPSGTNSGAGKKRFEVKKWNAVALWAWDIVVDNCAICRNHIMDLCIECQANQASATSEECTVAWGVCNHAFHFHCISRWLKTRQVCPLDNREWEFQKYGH
# assayProtocol: VHL SPR assay
# Format: binding
# conditionSet: immobilized VHL complex; read-out: VHL SPR Kd
parameter: Kd

1) Cc1ncsc1-c1ccc(CNC(=O)[C@@H]2C[C@@H](O)CN2C(=O)[C@@H](NC(=O)COCCOCCOc2ccc(COc3ccc4oc(-c5ccc(=O)n(C)n5)nc4c3)nc2)C(C)(C)C)cc1 ... 100 to 500 nM
2) Cc1ncsc1-c1ccc(CNC(=O)[C@@H]2C[C@@H](O)CN2C(=O)[C@@H](NC(=O)CCOCCOCCOCCOCCOCCOc2ccc(C(=O)Nc3ccc4oc(-c5ccc(=O)n(C)n5)nc4c3)nc2)C(C)(C)C)cc1 ... < 100 nM
3) CNc1c(-c2cn3c(n2)sc2cc(OCCOCC(=O)N[C@H](C(=O)N4C[C@H](O)C[C@H]4C(=O)NCc4ccc(-c5scnc5C)cc4)C(C)(C)C)ccc23)nc2cc(C#N)ccn12 ... 100 to 500 nM
4) Cc1ncsc1-c1ccc(CNC(=O)[C@@H]2C[C@@H](O)CN2C(=O)[C@H](C(C)C)N2Cc3ccccc3C2=O)c(OCCOc2ccc(COc3ccc4oc(-c5ccc(=O)n(C)n5)nc4c3)nc2)c1 ... > 500 nM

q: Find the recorded Kd belonging to CNc1c(-c2cn3c(n2)sc2cc(OCCOCCOCC(=O)N[C@H](C(=O)N4C[C@H](O)C[C@H]4C(=O)NCc4ccc(-c5scnc5C)cc4)C(C)(C)C)ccc23)nc2cc(C#N)ccn12 and report it.
a: 100 to 500 nM

q: Could you tell me which Kd is on file for Cc1ncsc1-c1ccc(CNC(=O)[C@@H]2C[C@@H](O)CN2C(=O)[C@@H](NC(=O)COCCOCCOCCOc2ccc(COc3ccc4oc(N5CCn6ccnc6C5)nc4c3)nc2)C(C)(C)C)cc1 ?
a: > 500 nM

q: Endpoint output: Kd of Cc1ncsc1-c1ccc(CNC(=O)[C@@H]2C[C@@H](O)CN2C(=O)[C@@H](NC(=O)COCCOCCOCCOc2ccc(COc3ccc4oc(N5CCNCC5)nc4c3)nc2)C(C)(C)C)cc1 . Value?
a: 100 to 500 nM

q: Which measured Kd value corresponds to Cc1ncsc1-c1ccc(CNC(=O)[C@H]2C[C@H](O)CN2C(=O)[C@H](NC(=O)COCCOCCOc2ccc(COc3ccc4oc(-c5ccc(=O)n(C)n5)nc4c3)nc2)C(C)(C)C)cc1 ?
a: > 500 nM
